Here, each record is paired with measured growth data.
Test system: MDA-MB-435 melanoma
Assay: NCI-60 one-dose screen, 48 h (100 = growth as untreated, 0 = no growth, -100 = all killed)
Details: 10 µM unless noted
Procedure: Growth inhibition of the MDA-MB-435 human Melanoma tumor cell line is measured as a screen for anti-cancer activity. Cells are grown in 96 well plates and exposed to the test compound for 48 hours. Compounds are tested at a single concentration, which is 10^-5 M for most compounds. The reported endpoint is percent growth (GI% or GIPRCNT), where numbers from 0 - 100% represent growth inhibition, and numbers from -100% - 0 represent cell death. […]
This is part of a sample that, as a whole, favours compounds with a hit. Of some 83,000 tested, about 20% had one in any assay.
Express your answer in %, writing the number without its unit.

Study these solved cases before continuing.
INSERT INTO results (compound, assay_target, unit_annotation, recorded_result) VALUES
  ('CC(=O)NCC(=O)c1ccc([N+](=O)[O-])cc1', 'MDA-MB-435 melanoma', '%', 104),
  ('Brc1ccc(SSc2ccc(Br)cc2)cc1', 'MDA-MB-435 melanoma', '%', 82.6),
  ('CC(C)NC(=O)N/C=C(\C#N)C(N)=O', 'MDA-MB-435 melanoma', '%', 92.6),
  ('Nc1cc(N)c(N)cc1N', 'MDA-MB-435 melanoma', '%', -73.8),
  ('OC1COC(OCc2ccccc2)C(O)C1O (centres undefined)', 'MDA-MB-435 melanoma', '%', 104);

Now turn to the next compound.
Q: Form: Entry = `Cc1ccc(S(=O)(=O)c2ccccc2)cc1` | System = MDA-MB-435 melanoma | growth = ____
Ans: -49.8

----------
System: SW-620 colon
Assay: NCI-60 one-dose screen, 48 h (100 = growth as untreated, 0 = no growth, -100 = all killed)
Details: 10 µM unless noted
About 83,000 compounds went through this panel and 20% of them were active in at least one assay; those are over-represented in the sample as a whole.
QUANTITY_MEASURED: growth (%)
Answer with a number only, understood to be in %.

Illustrative cases are given below, each with its answer.
INSERT INTO assay_data (compound, unit_annotation, recorded_result) VALUES
  ('CC1CCC2(OC1)OC1CC3C4CC=C5CC(O)CCC5(C)C4CCC3(C)C1C2C (stereo not drawn)', '%', 106),
  ('OCCN1CCCCCCC1', '%', 108),
  ('CN(C)CC1CCCCCC(CN(C)C)C1=O (stereo not drawn)', '%', -64.3);

Q: GET /values?readout=growth&item= `O=[N+]([O-])c1cccc(SSc2cccc([N+](=O)[O-])c2)c1`
Ans: 109

Q: GET /values?readout=growth&item= `Nc1nc(N)c2[nH]cnc2n1`
Ans: 85.9

Q: Find the recorded growth belonging to `CC(=O)NCC(=O)c1ccc([N+](=O)[O-])cc1` and report it.
Ans: 99.5

Q: Data request, read-out growth, for `ClCCOCCOc1ccc(C2CCCCC2)cc1`
Ans: 110

Q: Given CC(=O)OC(C)C(=O)NCC(C)O (stereo not drawn) , state its recorded growth.
Ans: 94.3

----------
A collection of compounds and their measured growth
Test system: RPMI-8226 leukemia
Test: NCI-60 one-dose screen, 48 h (100 = growth as untreated, 0 = no growth, -100 = all killed)
Settings: 10 µM unless noted
Compounds without any hit were thinned out: in the full panel of roughly 83,000, 20% have a hit.
# value in %; strip the unit string

INSERT INTO assay_data (compound, recorded_result) VALUES
  ('CC[C@H](CC[C@@H](C)[C@H]1CC[C@H]2[C@@H]3CC=C4C[C@@H](O)CC[C@]4(C)[C@H]3CC[C@]12C)C(C)C', 114),
  ('Nc1ncnc2c1ncn2C1OC(COP(=O)(O)O)C(O)C1O (stereo not drawn)', 106),
  ('CC(=O)NCC(=O)c1ccc([N+](=O)[O-])cc1', 104);

Q: Field request: growth | item: `O=C1OC(c2ccccc2)=N/C1=C\c1ccccc1`
Ans: 102

Q: Which growth value is on record for `CC(C)NC(=O)N/C=C(\C#N)C(N)=O` ?
Ans: 116

Q: Recorded growth of NC(=O)NCCCC(N)C(=O)O (stereo not drawn) , please.
Ans: 96.5

Q: Which growth reading was recorded for the compound COc1ccc(C(=O)CC(c2ccccc2)C(C#N)c2ccccc2)cc1 (stereo not drawn) ?
Ans: 72.6

Q: Which growth value is on record for `COc1ccc(Nc2ccc3ccccc3c2)cc1` ?
Ans: 66.5

Q: # lookup: growth of O=c1n(CC2CO2)c(=O)n(CC2CO2)c(=O)n1CC1CO1 (stereo not drawn)
Ans: 84.6

Q: So what does the record say about growth for `CCOC(=O)c1c(C)cc(=O)oc1C` ?
Ans: 97.9

Q: Quick one: growth of `Cc1ccc(=O)[nH]n1` ?
Ans: 108

Q: I'd like to know its growth. The compound in question is `CCCCCCCCCCNC(=O)CI`
Ans: -37.1

Q: Bench note: what growth did CC1CCC(C(C)C)C(NNC(N)=O)C1 (stereo not drawn) show?
Ans: 98.5

----------
System: CCRF-CEM leukemia
Assay: NCI-60 one-dose screen, 48 h (100 = growth as untreated, 0 = no growth, -100 = all killed)
Settings: 10 µM
Compounds without any hit were thinned out: in the full panel of roughly 83,000, 20% have a hit.
QUANTITY_MEASURED: growth (%)
# output: bare number, implied unit %

Some compounds with known growth results, for comparison:
INSERT INTO measurements (compound, quantity_measured, recorded_result) VALUES
  ('COc1ccc(N/C=C/C2=[N+](C)c3ccccc3C2(C)C)c(OC)c1', 'growth', 90.7),
  ('Nc1cc(N)c(N)cc1N', 'growth', 89.6),
  ('c1ccc(CNCCNCc2ccccc2)cc1', 'growth', 92.6);

Here's the next entry for you.
Q: Form: Entry = OCC1OC(O)C(O)C(O)C1O (centres undefined) | System = CCRF-CEM leukemia | growth = ____
Ans: 92.3

----------
Tested on: SNB-19 CNS
Experiment: NCI-60 one-dose screen, 48 h (100 = growth as untreated, 0 = no growth, -100 = all killed)
Details: 10 µM unless noted
Compounds without any hit were thinned out: in the full panel of roughly 83,000, 20% have a hit. Calls of active or inactive are those of the source. Rule for the calls: active = growth percent below 10; inactive = the rest.
# growth values compiled below

Sample records with growth:
INSERT INTO results (molecule, assay_target, quantity_measured, recorded_result) VALUES
  ('OCCN1CCCCCCC1', 'SNB-19 CNS', 'growth', '101% (inactive)'),
  ('Cc1ccc(=O)[nH]n1', 'SNB-19 CNS', 'growth', '93.9% (inactive)'),
  ('Cc1cc(-c2ccc(N=Nc3ccc4c(S(=O)(=O)O)cc(S(=O)(=O)O)c(N)c4c3O)c(C)c2)ccc1N=Nc1ccc2c(S(=O)(=O)O)cc(S(=O)(=O)O)c(N)c2c1O', 'SNB-19 CNS', 'growth', '111% (inactive)'),
  ('c1ccc2c(c1)OC1OC2Oc2ccccc21', 'SNB-19 CNS', 'growth', '97.6% (inactive)');

# ---- query molecule ----
Q: For the molecule CC1=C/C(O)CC(=O)Cc2nc(co2)C(=O)N2CCC=C2C(=O)OC(C(C)C)C(C)/C=C\C(=O)NC/C=C\1 (stereo not given) , what growth is on record?
Ans: 89.8% (inactive)

----------
Test system: CAKI-1 renal
Assay: NCI-60 one-dose screen, 48 h
Settings: 10 µM unless noted
Compounds without any hit were thinned out: in the full panel of roughly 83,000, 20% have a hit. Active and inactive are the calls of the source. The calls were made as follows: active = growth percent below 10; inactive = the rest.
Outcomes you can answer with include only these: active, inactive

Record excerpt, results attached:
INSERT INTO assay_data (compound, assigned_class) VALUES
  ('O=C1OC(c2ccccc2)=N/C1=C\c1ccccc1', 'inactive'),
  ('O=CN1CCCCC1', 'inactive'),
  ('CC1CCC(C(C)C)C(NNC(N)=O)C1 (centres undefined)', 'inactive'),
  ('COc1ccc(C(=O)CC(c2ccccc2)C(C#N)c2ccccc2)cc1 (centres undefined)', 'inactive'),
  ('Fc1ccc([I+]c2ccc(F)cc2)cc1', 'inactive'),
  ('CCCCCCCCCCNC(=O)CI', 'active'),
  ('CN(C)CC1CCCCCC(CN(C)C)C1=O (centres undefined)', 'active'),
  ('c1ccc(-c2nc3ccccc3s2)cc1', 'inactive'),
  ('CC(C)NC(=O)N/C=C(\C#N)C(N)=O', 'inactive'),
  ('CCc1cc(C)cc(O)c1', 'inactive');

Q: Hello, I am checking results. What call was entered for `CC1(C)COC(=S)N1` ?
Ans: inactive

Q: Record lookup: outcome of this test for `CC(C)C(C)(C)c1ccc(O)cc1` ?
Ans: inactive

Q: Please state the recorded outcome for this compound: `c1ccc2c(c1)OC1OC2Oc2ccccc21`
Ans: inactive

Q: Kindly provide the recorded test outcome for the following compound: `Nc1cc(N)c(N)cc1N`
Ans: inactive
